target: hCGRP receptor (CALCRL:RAMP1) (Homo sapiens, UniProt O60894+Q16602); construct: host or cells: GeneBLAzer CALCRL:RAMP1-CRE-bla Freestyle 293F; test: CGRP receptor antagonist activity measured by cAMP assay (HTRF); type: cell-based; conditions: GeneBLAzer CALCRL:RAMP1-CRE-bla Freestyle 293F cells; agonist human α-CGRP; 30 minutes; read-out: hCGRP-R IC50 Ave
Sequence (Q16602 23-461): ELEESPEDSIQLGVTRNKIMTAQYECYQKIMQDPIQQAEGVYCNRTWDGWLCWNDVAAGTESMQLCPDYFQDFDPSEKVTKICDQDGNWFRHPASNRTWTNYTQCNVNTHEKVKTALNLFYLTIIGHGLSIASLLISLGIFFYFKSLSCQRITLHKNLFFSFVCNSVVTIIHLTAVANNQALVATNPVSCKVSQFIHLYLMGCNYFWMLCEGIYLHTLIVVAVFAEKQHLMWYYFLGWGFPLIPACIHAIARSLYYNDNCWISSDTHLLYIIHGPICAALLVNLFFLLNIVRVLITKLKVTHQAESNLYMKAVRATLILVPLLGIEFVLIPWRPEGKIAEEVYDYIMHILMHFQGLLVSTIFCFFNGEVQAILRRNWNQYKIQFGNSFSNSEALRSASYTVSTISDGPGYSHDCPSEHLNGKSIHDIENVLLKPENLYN
Sequence (O60894 27-148): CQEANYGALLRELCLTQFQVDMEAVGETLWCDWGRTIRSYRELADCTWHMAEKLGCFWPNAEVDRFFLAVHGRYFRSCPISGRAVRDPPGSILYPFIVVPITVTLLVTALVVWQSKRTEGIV
Numbered stars: 1 amine (or outer) side, 2 acyl side, 3 side chain; on linkers, the order of the positions; unused ones are H or OH. Bridge positions count the residues as written; N and C are the ends. Square brackets hold non-standard residues; d marks the D form. Peptide text beside a SMILES is read from it. * marks the point of attachment. Phe(2-CONH2) = NC(=O)c1ccccc1C[C@H](N)C(=O)O; X5 = O=C([C@H](Cc1ccc(CO)cc1)N[*:1])[*:2]; Lys(Me2) = CN(C)CCCC[C@H](N)C(=O)O; Orn(iPr) = CC(C)NCCC[C@H](N)C(=O)O; Oxazole2carbonyl = O=C(c1ncco1)*; 3Pal = N[C@@H](Cc1cccnc1)C(=O)O; Orn = NCCC[C@H](N)C(=O)O; X12 = Cc1cccnc1C(=O)*
property name: pIC50
Bear in mind: pIC50 is minus log10 of a mol/L concentration; give just that figure.

GET /values?readout=pIC50&item= CC(C)NCCC[C@@H]1NC(=O)[C@@H](NC(=O)[C@H](Cc2ccccc2C(N)=O)NC(=O)[C@H](NC(=O)c2ncco2)C(C)C)CSSC[C@@H](C(=O)N[C@@H](Cc2cccnc2)C(N)=O)NC(=O)[C@H](Cc2ccc(CO)cc2)NC(=O)[C@@H]2CCCN2C(=O)CNC(=O)[C@H](C(C)C)NC(=O)[C@H](CC(=O)O)NC1=O [Compound 64] (Oxazole2carbonyl-[dV][Phe(2-CONH2)]C[Orn(iPr)]DVGP[X5]C[3Pal]-NH2; disulfide 3-10)
9.92

GET /values?readout=pIC50&item= Cc1cccnc1C(=O)N[C@@H](C(=O)N[C@@H](Cc1ccc(O)cc1)C(=O)N[C@H]1CSSC[C@@H](C(=O)N[C@@H](Cc2cccnc2)C(N)=O)NC(=O)[C@H](Cc2ccccc2)NC(=O)[C@@H]2CCCN2C(=O)CNC(=O)[C@H](C(C)C)NC(=O)[C@H](CC(=O)O)NC(=O)[C@H](CCCNC(=N)N)NC1=O)C(C)C [Compound 34] (X12-[dV]YCRDVGPFC[3Pal]-NH2; disulfide 3-10)
9.85

GET /values?readout=pIC50&item= CC(C)[C@@H]1NC(=O)[C@H](CC(=O)O)NC(=O)[C@H](CCCNC(=O)[C@@H](N)CCCCN(C)C)NC(=O)[C@@H](NC(=O)[C@H](Cc2ccc(O)cc2)NC(=O)[C@H](NC(=O)c2ncco2)C(C)C)CSSC[C@@H](C(=O)N[C@@H](Cc2cccnc2)C(N)=O)NC(=O)[C@H](Cc2ccccc2)NC(=O)[C@@H]2CCCN2C(=O)CNC1=O [Compound 44] (Oxazole2carbonyl-[dV]YC[Orn](Lys(Me2))DVGPFC[3Pal]-NH2; disulfide 3-10)
9.77

====

target: hAM2 receptor (CALCRL:RAMP3) (Homo sapiens, UniProt O60896+Q16602); construct: expressed in transfected cells; host or cells: GeneBLAzer CALCRL:RAMP3-CRE-bla Freestyle 293F; experiment: AM2 receptor antagonist activity measured by cAMP assay (HTRF); format: cell-based; conditions: % MPE: percent of the maximal possible effect; agonist human adrenomedullin; read-out: hAM2-R Efficacy Antag (%) Ave
Sequence (Q16602 23-461): as the sequence (Q16602 23-461) above
Sequence (O60896 24-148): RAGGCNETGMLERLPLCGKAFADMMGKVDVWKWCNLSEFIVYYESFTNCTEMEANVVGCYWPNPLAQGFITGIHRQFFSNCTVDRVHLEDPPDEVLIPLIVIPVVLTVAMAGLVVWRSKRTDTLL
Numbered stars: 1 amine (or outer) side, 2 acyl side, 3 side chain; on linkers, the order of the positions; unused ones are H or OH. Bridge positions count the residues as written; N and C are the ends. Square brackets hold non-standard residues; d marks the D form. Peptide text beside a SMILES is read from it. * marks the point of attachment. Phe(3-CH2NH2) = O=C([C@H](Cc1cccc(CN[*:3])c1)N[*:1])[*:2]; Phe(2-CONH2) = NC(=O)c1ccccc1C[C@H](N)C(=O)O; X5 = O=C([C@H](Cc1ccc(CO)cc1)N[*:1])[*:2]; Imidazole4carbonyl = O=C(c1cnc[nH]1)*; Orn(iPr) = CC(C)NCCC[C@H](N)C(=O)O; Benzoyl(4-F) = O=C(c1ccc(F)cc1)*; Oxazole2carbonyl = O=C(c1ncco1)*; 3Pal = N[C@@H](Cc1cccnc1)C(=O)O; Pyrrole2CO = O=C(c1ccc[nH]1)*; Picolinoyl = O=C(c1ccccn1)*; ΔPro = O=C(O)[C@@H]1C=CCN1; Orn = NCCC[C@H](N)C(=O)O; X11 = O=C(c1ncccc1Cl)*; X12 = Cc1cccnc1C(=O)*; X1 = O=C(c1ncccc1F)*
property name: Emax (%)
Return type: number; implicit unit %.

GET /values?readout=Emax&item= CC(C)[C@@H]1NC(=O)[C@H](CC(=O)O)NC(=O)[C@H](CCCNC(=N)N)NC(=O)[C@@H](NC(=O)[C@H](Cc2ccc(O)cc2)NC(=O)[C@H](NC(=O)c2ccc[nH]2)C(C)C)CSSC[C@@H](C(=O)N[C@@H](Cc2cccnc2)C(N)=O)NC(=O)[C@H](Cc2ccccc2)NC(=O)[C@@H]2CCCN2C(=O)CNC1=O [Compound 49] (Pyrrole2CO-[dV]YCRDVGPFC[3Pal]-NH2; disulfide 3-10)
99

GET /values?readout=Emax&item= CC(C)NCCC[C@@H]1NC(=O)[C@@H](NC(=O)[C@H](Cc2ccccc2C(N)=O)NC(=O)[C@H](NC(=O)c2ncco2)C(C)C)CSSC[C@@H](C(=O)N[C@@H](Cc2cccnc2)C(N)=O)NC(=O)[C@H](Cc2ccc(CO)cc2)NC(=O)[C@@H]2CCCN2C(=O)CNC(=O)[C@H](C(C)C)NC(=O)[C@H](CC(=O)O)NC1=O [Compound 64] (Oxazole2carbonyl-[dV][Phe(2-CONH2)]C[Orn(iPr)]DVGP[X5]C[3Pal]-NH2; disulfide 3-10)
99

GET /values?readout=Emax&item= Cc1cccnc1C(=O)N[C@@H](C(=O)N[C@@H](Cc1ccc(O)cc1)C(=O)N[C@H]1CSSC[C@@H](C(=O)N[C@@H](Cc2cccnc2)C(N)=O)NC(=O)[C@H](Cc2ccccc2)NC(=O)[C@@H]2CCCN2C(=O)CNC(=O)[C@H](C(C)C)NC(=O)[C@H](CC(=O)O)NC(=O)[C@H](CCCNC(=N)N)NC1=O)C(C)C [Compound 34] (X12-[dV]YCRDVGPFC[3Pal]-NH2; disulfide 3-10)
100

GET /values?readout=Emax&item= CC(C)[C@@H]1NC(=O)[C@H](CC(=O)O)NC(=O)[C@H](CCCNC(=N)N)NC(=O)[C@@H](NC(=O)[C@H](Cc2ccc(O)cc2)NC(=O)[C@H](NC(=O)c2cnc[nH]2)C(C)C)CSSC[C@@H](C(=O)N[C@@H](Cc2cccnc2)C(N)=O)NC(=O)[C@H](Cc2ccccc2)NC(=O)[C@@H]2CCCN2C(=O)CNC1=O [Compound 37] (Imidazole4carbonyl-[dV]YCRDVGPFC[3Pal]-NH2; disulfide 3-10)
100

GET /values?readout=Emax&item= CC(C)NCCC[C@@H]1NC(=O)[C@@H](NC(=O)[C@H](Cc2ccccc2C(N)=O)NC(=O)[C@H](NC(=O)c2ncco2)C(C)C)CSSC[C@@H](C(=O)N[C@@H](Cc2cccnc2)C(N)=O)NC(=O)[C@H](Cc2cccnc2)NC(=O)[C@@H]2C=CCN2C(=O)CNC(=O)[C@H](C(C)C)NC(=O)[C@H](CC(=O)O)NC1=O [Compound 58] (Oxazole2carbonyl-[dV][Phe(2-CONH2)]C[Orn(iPr)]DVG[ΔPro][3Pal]C[3Pal]-NH2; disulfide 3-10)
99

GET /values?readout=Emax&item= CC(C)[C@@H]1NC(=O)[C@H](CC(=O)O)NC(=O)[C@H](CCCNC(=N)N)NC(=O)[C@@H](NC(=O)[C@H](Cc2ccccc2C(N)=O)NC(=O)[C@H](NC(=O)c2ncccc2F)C(C)C)CSSC[C@@H](C(=O)N[C@@H](Cc2cccnc2)C(N)=O)NC(=O)[C@H](Cc2cccc(CN)c2)NC(=O)[C@@H]2C=CCN2C(=O)CNC1=O [Compound 32] (X1-[dV][Phe(2-CONH2)]CRDVG[ΔPro][Phe(3-CH2NH2)]C[3Pal]-NH2; disulfide 3-10)
99

GET /values?readout=Emax&item= CC(C)[C@@H]1NC(=O)[C@H](CC(=O)O)NC(=O)[C@H](CCCNC(=N)N)NC(=O)[C@@H](NC(=O)[C@H](Cc2ccc(O)cc2)NC(=O)[C@H](NC(=O)c2ncccc2Cl)C(C)C)CSSC[C@@H](C(=O)N[C@@H](Cc2cccnc2)C(N)=O)NC(=O)[C@H](Cc2ccccc2)NC(=O)[C@@H]2CCCN2C(=O)CNC1=O [Compound 51] (X11-[dV]YCRDVGPFC[3Pal]-NH2; disulfide 3-10)
100

GET /values?readout=Emax&item= CC(C)[C@@H]1NC(=O)[C@H](CC(=O)O)NC(=O)[C@H](CCCN)NC(=O)[C@@H](NC(=O)[C@H](Cc2ccc(O)cc2)NC(=O)[C@H](NC(=O)c2ccccn2)C(C)C)CSSC[C@@H](C(=O)N[C@@H](Cc2cccnc2)C(N)=O)NC(=O)[C@H](Cc2ccc(CO)cc2)NC(=O)[C@@H]2CCCN2C(=O)CNC1=O [Compound 25] (Picolinoyl-[dV]YC[Orn]DVGP[X5]C[3Pal]-NH2; disulfide 3-10)
100

GET /values?readout=Emax&item= CC(C)NCCC[C@@H]1NC(=O)[C@@H](NC(=O)[C@H](Cc2ccc(O)cc2)NC(=O)[C@H](NC(=O)c2ncco2)C(C)C)CSSC[C@@H](C(=O)N[C@@H](Cc2cccnc2)C(N)=O)NC(=O)[C@H](Cc2ccc(CO)cc2)NC(=O)[C@@H]2C=CCN2C(=O)CNC(=O)[C@H](C(C)C)NC(=O)[C@H](CC(=O)O)NC1=O [Compound 70] (Oxazole2carbonyl-[dV]YC[Orn(iPr)]DVG[ΔPro][X5]C[3Pal]-NH2; disulfide 3-10)
100

GET /values?readout=Emax&item= CC(C)[C@@H]1NC(=O)[C@H](CC(=O)O)NC(=O)[C@H](CCCNC(=N)N)NC(=O)[C@@H](NC(=O)[C@H](Cc2ccc(O)cc2)NC(=O)[C@H](NC(=O)c2ccc(F)cc2)C(C)C)CSSC[C@@H](C(=O)N[C@@H](Cc2cccnc2)C(N)=O)NC(=O)[C@H](Cc2ccccc2)NC(=O)[C@@H]2C=CCN2C(=O)CNC1=O [Compound 4] ({Benzoyl(4-F)}-[dV]YCRDVG[ΔPro]FC[3Pal]-NH2; disulfide 3-10)
113
